Tested on: SNB-75 CNS
Assay: NCI-60 one-dose screen, 48 h
Conditions: 10 µM
Compounds without any hit were thinned out: in the full panel of roughly 83,000, 20% have a hit. Active and inactive are the calls of the source. The calls were made as follows: active = growth percent below 10; inactive = the rest.
Please answer using one outcome listed in true (1) for active, false (0) for inactive

CCn1c(SC/C(=N/O)c2ccccc2)nnc1-c1ccccc1; false (0)
CCCCN(CCCC)C(=O)[C@H](CC)[C@@H]1CC[C@@H](C)[C@@H]([C@H](C)[C@@H](O)[C@@H](C)C(=O)[C@H](CC)C2O[C@]3(C=CC(=O)[C@]4(CC[C@@](C)([C@H]5CC[C@](O)(CC)[C@H](C)O5)O4)O3)[C@H](C)C[C@@H]2C)O1 (some centres undefined); false (0)
COc1cccc2ccc(CC(O)(c3ccccc3)c3ccccc3)nc12; false (0)
CCC(CC)n1c(C)cc(=O)n1C(CC)CC; false (0)
Cc1nc2n(c(=O)c1CCN1CCC(c3noc4cc(F)ccc34)CC1)CCC[C@@H]2O; false (0)

In: GET /call?item= COC1=CC(=O)OC(c2ccc(OC)cc2)C1 (centres undefined) returns the recorded outcome of this test.
Out: false (0)

In: GET /call?item= Cc1cc(CC(C)CC(C)(C)C)n(O)c(=O)c1 (centres undefined) (tested in a mixture with another compound) returns the recorded outcome of this test.
Out: false (0)

In: GET /call?item= CC(C)=CCC/C(C)=C/CC/C(C)=C/CC/C=C(\C)CC/C=C(\C)CCC(=O)Nc1ccn(C2OC(CO)C(O)C2(F)F)c(=O)n1 (centres undefined) returns the recorded outcome of this test.
Out: true (1)

Source of measurements: PubChem BioAssay (NCI)
